molecular target: Inositol monophosphatase 1 (Bos taurus, UniProt P20456); experiment: Compound was tested for inhibitory activity against myo-inositol-1-phosphatase; weak inhibitor
Quantity Kind: IC50

Smiles	Quantity Kind	Test Value
O=C(O)CO[C@@H]1[C@H](O)C[C@@H](O)C[C@H]1OCCCCc1ccccc1O	IC50	> 300 µM

====

Molecular target: Inositol monophosphatase 1 (Bos taurus)
Sequence (P20456 whole entry): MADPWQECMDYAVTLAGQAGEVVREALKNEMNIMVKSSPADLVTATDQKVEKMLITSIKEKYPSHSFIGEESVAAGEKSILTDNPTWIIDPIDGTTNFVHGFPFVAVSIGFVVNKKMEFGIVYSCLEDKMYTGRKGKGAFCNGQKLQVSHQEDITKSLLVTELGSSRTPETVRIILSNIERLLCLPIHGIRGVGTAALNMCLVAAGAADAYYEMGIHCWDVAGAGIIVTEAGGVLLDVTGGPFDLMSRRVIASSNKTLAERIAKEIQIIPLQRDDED
Experiment: Inhibitory activity against myo-inositol-1-phosphatase

Molecule	Comparator	IC50 / µM
CC(=O)NS(=O)(=O)O[C@@H]1[C@H](O)C[C@@H](O)C[C@H]1OCCCCc1ccccc1O	>	300
NS(=O)(=O)O[C@@H]1[C@H](O)C[C@@H](O)C[C@H]1OCCCCC1CCCCC1=O (stereo not given in full)	=	200
O=C1CCCCC1CCCCO[C@@H]1C[C@H](O)C[C@@H](O)[C@H]1OS(=O)(=O)O (stereo not given in full)	=	100
NS(=O)(=O)O[C@@H]1[C@H](O)C[C@@H](O)C[C@H]1OCCCCc1ccccc1O	>	300
O=S(=O)(O)O[C@@H]1[C@H](O)C[C@@H](O)C[C@H]1OCCCCc1ccccc1O	=	90
